Can you tell me Luminescence for the items I'm about to list?
# Test system: HEK293T cells
# ASSAY_TEXT: In vitro Luc-mRNA transfection, luciferase luminescence expression in HEK293T cells
# Assay type: cell-based, human
# Parameters: unit not given here
# STUDY_CONDITIONS: Table 16; HEK 293T cells, 125 ng/well, n=3

COMPOUND: CCCCCCCCCCCCCCCCCOc1cc(COC(=O)CCCN2CCN(C)CC2)cc(OCCCCCCCCCCCCCCC)c1
Luminescence: 9,310

Record Luminescence for all entries; do not skip any.
1. CCCCCCCCCCCCCCCOc1cc(COC(=O)CCCN2CCN(C)CC2)cc(OCCCCCCCCCCC)c1
2. CCCCCCCCCCCCCCCOc1cc(COC(=O)CCCN2CCN(C)CC2)cc(OCCCCCCCCCC)c1
3. CCCCCCCCCCCCCOc1cc(COC(=O)CCCN2CCN(CCO)CC2)cc(OCC(CC)CCCC)c1 (stereo not drawn)
4. CCCCCCCCCCCCCCCCOc1cc(COC(=O)CCCN2CCN(CCO)CC2)cc(OCCCCCCCCCCCCCCC)c1
5. CCCCCCCCCCCCCCCOc1cc(COC(=O)CCCN2CCN(CCO)CC2)cc(OCC(CC)CCCC)c1 (stereo not drawn)

Result:
["568,354", "140,589", "222,235", "134,225", "283,656"]
